# Assayed system: SpLsb4
# Procedure text: SPOT peptide array binding signal intensity (averaged, normalized) (arbitrary units (background-subtracted, floor 0; scale differs between SH3 domains)); higher = stronger binding of the SH3 domain to the peptide
Property measured: SPOT peptide array binding signal intensity
Hey, just send me the number, nothing else.

// below: answered binders
- Binder: "AGKRRLPLVRFKASD"
  Observed: 354
- Binder: "ATKSASPTLPTRRSR"
  Observed: 7440
- Binder: "SGVRLPAPPPPPRRG"
  Observed: 6010
- Binder: "SRSKPLPLTPNSKYN"
  Observed: 17
- Binder: "QPQRTAPKPPISAPR"
  Observed: 27.5

Below: the item to evaluate.
Assign SPOT peptide array binding signal intensity to the following record: QRIRKIPGIPLMSVG
3060
